These measurements were taken from the Immune Epitope Database (IEDB).

- STUDY SYSTEM: HLA-A*02:12
- ASSAY EXPLANATION: IEDB peptide-MHC binding, purified MHC/competitive/fluorescence; filed as Kd, often an IC50 or EC50 that approximates it; bounds were set here for any values at or beyond the usual limits of such assays
- MEASUREMENT SETUP: source organism: Giardia lamblia ATCC 50803
pKd: −log10 of the molar value.
MEASURE NAME: pKd

sequence KVSWRWMVY , pKd observed: ≤ 4.70

###

Measured Kd of individual entries
- STUDY SYSTEM: HLA-A*33:01
- ASSAY EXPLANATION: IEDB peptide-MHC binding, purified MHC/competitive/radioactivity; filed as Kd, often an IC50 or EC50 that approximates it; bounds were set here for any values at or beyond the usual limits of such assays
- MEASUREMENT SETUP: source organism: Vaccinia virus WR
Write the answer as a number in µM, unit excluded.

- SVEDVSAFVR: 2.12
- FTDISMSLYK: 4.21
- LSRLRYNLCK: 2.64

sequence NLPYNWKNFY , Kd observed: 18.6

sequence NTPLHIVCSK , Kd observed: 7.19

sequence AALFMYYAKR , Kd observed: 0.837

sequence ISARALKAY , Kd observed: 16.4

sequence NTLSERISSK , Kd observed: 0.404

###

- STUDY SYSTEM: HLA-A*24:03
- ASSAY EXPLANATION: IEDB peptide-MHC binding, purified MHC/competitive/fluorescence; filed as Kd, often an IC50 or EC50 that approximates it; bounds were set here for any values at or beyond the usual limits of such assays
- MEASUREMENT SETUP: source organism: Bacillus anthracis str. A2012
MEASURE NAME: Kd

sequence FFSPVIASL , Kd observed: ≤ 0.1 nM

###

- STUDY SYSTEM: HLA-A*03:01
- ASSAY EXPLANATION: IEDB peptide-MHC binding, purified MHC/competitive/fluorescence; filed as Kd, often an IC50 or EC50 that approximates it; bounds were set here for any values at or beyond the usual limits of such assays
- MEASUREMENT SETUP: source organism: Burkholderia vietnamiensis G4
MEASURE NAME: pKd
Reminder that pKd means the negative base-10 logarithm of the concentration expressed in mol/L.

sequence KMARAGLGK , pKd observed: 7.69

###

- STUDY SYSTEM: HLA-B*58:01
- ASSAY EXPLANATION: IEDB peptide-MHC binding, purified MHC/direct/fluorescence; filed as Kd, often an IC50 or EC50 that approximates it; bounds were set here for any values at or beyond the usual limits of such assays
- MEASUREMENT SETUP: source organism: Haemophilus influenzae
MEASURE NAME: pKd
Reminder that pKd means the negative base-10 logarithm of the concentration expressed in mol/L.

sequence ILWGYGFLQ , pKd observed: 5.32

###

- STUDY SYSTEM: HLA-A*01:01
- ASSAY EXPLANATION: IEDB peptide-MHC binding, purified MHC/direct/fluorescence; filed as Kd, often an IC50 or EC50 that approximates it; bounds were set here for any values at or beyond the usual limits of such assays
- MEASUREMENT SETUP: source organism: Influenza A virus (A/Hong Kong/507/97(H5N1))
pKd: −log10 of the molar value.
MEASURE NAME: pKd

sequence GTSKIKMKW , pKd observed: ≤ 4.70

###

- STUDY SYSTEM: HLA-A*23:01
- ASSAY EXPLANATION: IEDB peptide-MHC binding, purified MHC/competitive/radioactivity; filed as Kd, often an IC50 or EC50 that approximates it; bounds were set here for any values at or beyond the usual limits of such assays
- MEASUREMENT SETUP: source organism: Mammarenavirus machupoense
MEASURE NAME: Kd

With HLA-A*23:01 as the test system, RCWLIRNGSY showed Kd of ≥ 34.7 µM

###

- STUDY SYSTEM: HLA-B*18:01
- ASSAY EXPLANATION: IEDB peptide-MHC binding, purified MHC/direct/fluorescence; filed as Kd, often an IC50 or EC50 that approximates it; bounds were set here for any values at or beyond the usual limits of such assays
- MEASUREMENT SETUP: source organism: Influenza A virus (A/swine/Hong Kong/5190/99(H3N2))
pKd: −log10 of the molar value.
MEASURE NAME: pKd

sequence YMFESKSMK , pKd observed: ≤ 4.70

###

- STUDY SYSTEM: HLA-B*40:01
- ASSAY EXPLANATION: IEDB peptide-MHC binding, purified MHC/direct/fluorescence; filed as Kd, often an IC50 or EC50 that approximates it; bounds were set here for any values at or beyond the usual limits of such assays
- MEASUREMENT SETUP: source organism: Yellow fever virus
pKd: −log10 of the molar value.
MEASURE NAME: pKd

With HLA-B*40:01 as the test system, ERWFVRNPF showed pKd of ≤ 4.70

###

- STUDY SYSTEM: HLA-A*30:01
- ASSAY EXPLANATION: IEDB peptide-MHC binding, purified MHC/competitive/fluorescence; filed as Kd, often an IC50 or EC50 that approximates it; bounds were set here for any values at or beyond the usual limits of such assays
- MEASUREMENT SETUP: source organism: Vaccinia virus WR
MEASURE NAME: Kd (nM)
Write the answer as a number in nM, unit excluded.

sequence IQFMHEQGY , Kd observed: 2.4

###

- STUDY SYSTEM: HLA-A*02:01
- ASSAY EXPLANATION: IEDB peptide-MHC binding, purified MHC/direct/fluorescence; filed as Kd, often an IC50 or EC50 that approximates it; bounds were set here for any values at or beyond the usual limits of such assays
- MEASUREMENT SETUP: source organism: H9N2 subtype Influenza A virus (A/swine/Korea/S83/2004(H9N2))
pKd: −log10 of the molar value.
MEASURE NAME: pKd

sequence HFQKDAKVL , pKd observed: ≤ 4.70

###

- STUDY SYSTEM: HLA-B*07:02
- ASSAY EXPLANATION: IEDB peptide-MHC binding, purified MHC/direct/fluorescence; filed as Kd, often an IC50 or EC50 that approximates it; bounds were set here for any values at or beyond the usual limits of such assays
- MEASUREMENT SETUP: source organism: Influenza A virus (A/Quail/Shanghai/8/96(H9N2))
pKd: −log10 of the molar value.
MEASURE NAME: pKd

sequence LVGGREWSY , pKd observed: ≤ 4.70

###

- STUDY SYSTEM: HLA-B*15:09
- ASSAY EXPLANATION: IEDB peptide-MHC binding, purified MHC/direct/fluorescence; filed as Kd, often an IC50 or EC50 that approximates it; bounds were set here for any values at or beyond the usual limits of such assays
- MEASUREMENT SETUP: source organism: Variola virus
pKd: −log10 of the molar value.
MEASURE NAME: pKd

With HLA-B*15:09 as the test system, IQFMHEQGY showed pKd of ≤ 4.70

###

- STUDY SYSTEM: HLA-A*02:02
- ASSAY EXPLANATION: IEDB peptide-MHC binding, purified MHC/competitive/radioactivity; filed as Kd, often an IC50 or EC50 that approximates it; bounds were set here for any values at or beyond the usual limits of such assays
- MEASUREMENT SETUP: source organism: SARS coronavirus Tor2
MEASURE NAME: Kd
# answer = value followed by unit

Solved entries:
* LMGHFSWWTA | 19.2 nM
* FLWLLWPVTL | 2.67 nM
* LLVAAGMEA | 17.4 nM
* LVFLILCFT | 2490 nM
* RILGAGCFV | 24.4 nM

sequence KLWAQCVQL , Kd observed: 12.7 nM

sequence ILFLTLIVFT , Kd observed: 23.6 nM

sequence LIVAALVFL , Kd observed: 9.38 nM

###

- STUDY SYSTEM: HLA-B*15:42
- ASSAY EXPLANATION: IEDB peptide-MHC binding, purified MHC/competitive/fluorescence; filed as Kd, often an IC50 or EC50 that approximates it; bounds were set here for any values at or beyond the usual limits of such assays
- MEASUREMENT SETUP: source organism: Salmonella enterica subsp. enterica serovar Typhi
MEASURE NAME: Kd

sequence WTFTPTTPL , Kd observed: ≥ 5 µM

###

- STUDY SYSTEM: HLA-B*08:02
- ASSAY EXPLANATION: IEDB peptide-MHC binding, purified MHC/direct/fluorescence; filed as Kd, often an IC50 or EC50 that approximates it; bounds were set here for any values at or beyond the usual limits of such assays
- MEASUREMENT SETUP: source organism: Influenza A virus(A/swine/Shandong/fNY/2003(H9N2))
MEASURE NAME: Kd

sequence VLTGNLQTL , Kd observed: ≥ 20 µM
